- Tested on: Valsa malicola (V. mali)
- method-description: In vitro fungicidal activity, mycelial (hyphae) growth inhibition on PDA
- Assay type: cell-based
- test-parameters: V. mali; read-out: EC50 (μmol/L)
recorded-metric: EC50 (µmol/L)
Your answer should be a plain number; it is taken to be in µmol/L.

The cases that follow already have their EC50 on record.
>>> result_value("CN(C/C=C/C#CC(C)(C)C)Cc1cccc2ccccc12.O=C(O)c1ccco1")
3.69
>>> result_value("CN(C/C=C/C#CC(C)(C)C)Cc1cccc2ccccc12")
4.28

The record that follows has no EC50 shown yet.
Query :: # input compound: CN(C/C=C/C#CC(C)(C)C)Cc1cccc2ccccc12.O=C(O)C1C(C(=O)O)[C@@]2(Cl)C(Cl)=C(Cl)[C@]1(Cl)C2(Cl)Cl ; wanted: its EC50
Result :: 6.29
